Tested on: OVCAR-5 ovarian
experimental.details: NCI tumour cell line growth inhibition, 48 h
TGI values for the compounds below.

>>> print(df.to_string())
                                   compound  observed
0  COc1ccc(/C=C2\CCC(CNc3cc(C)on3)C2=O)cc1 (centres undefined)  > 100 µM
1  CCOC(=O)CCC(NC(=O)c1ccc(CNc2nc3ccccc3nc2C(=O)OCC)cc1)C(=O)OCC (centres undefined)  > 100 µM
2  CC1=NN(C(=O)CC(=O)Nc2ccc(C)cc2)C(=O)C1N=Nc1ccc(C(=O)O)cc1 (centres undefined)  > 100 µM
3                      N#CC(C#N)N=Cc1ccncc1  > 100 µM
4  CCC(Sc1cc(Cl)c(C)cc1S(=O)(=O)Nc1nc(N)nc(N(C)C)n1)C(=O)O (centres undefined)   > 10 µM

## Input Return reported TGI for target or system OVCAR-5 ovarian, item Nc1nc(Cl)c(N)c(NCC2(CO)CCC2)n1 .
## Output > 100 µM

## Input Return reported TGI for target or system OVCAR-5 ovarian, item CCOC(=O)C(Cl)(NC(=O)NC(Cl)(C(=O)OCC)C(F)(F)F)C(F)(F)F (centres undefined) .
## Output > 100 µM

## Input Return reported TGI for target or system OVCAR-5 ovarian, item CC(=O)N[C@H]1C=C[C@@H]2/C=C(C)/C=C/[C@@H](C)[C@H]([C@H](C)[C@H](O)[C@@H](C)NC(C)=O)OC(=O)/C=C/C=C(C)\C=C\[C@]2(C)C1 .
## Output > 45 µM

## Input Return reported TGI for target or system OVCAR-5 ovarian, item O=c1c(Oc2ccc(F)cc2F)cc2cnc(NC3CCOCC3)nc2n1C1CCS(=O)(=O)CC1 .
## Output > 25 µM
